Measured values drawn from the supplement of paper PMC9170038 for this set.

tested on: MS2 coat protein; test: apparent KD of MS2 coat protein; designed switch direction (-1 OFF switch, 1 ON switch): -1; higher = weaker reporter binding; conditions: Eterna round: R95; input ligand: none
OUTCOME MEASURE: apparent KD of MS2 coat protein

residue_sequence="CCUUAGUCAGGAUAUUGAGGUAAAAGAAAAGAAAACGACAGCAAGAAGGGACAUGAGGAUCACCCAUGUAUAAA [Bequxeain] (puzzle: Exclusion 4)" observed="16.2 nM"
residue_sequence="UUAUUGCAAGCAAGAUCCCACAUGAGGAUCACCCAUGUGCUCGUCUUAUAAGGUACUGUGACGAAAGUCACGGUACC [Sensor 3, v1 - 99] (puzzle: Sensor v3, turn-off variant 1)" observed="30.6 nM"
residue_sequence="CUGGUCCGAGGAUAUAUUAUGUGAUACAUGAGGAUCACCCAUGUUAUAUGAUGGAAAUAAAUAGAAGGCGGACUAG [Mat - Exclusion 5 - JL mod - D67] (puzzle: Exclusion 5)" observed="69 nM"
residue_sequence="AGAUGACUGGAGGAUAUCCGAUGCUUCCUGCCAGGAGAAGGCCGGACAUGAGGAUCACCCAUGUGGUGAGCUCG [Vezaatinle] (puzzle: Exclusion 6)" observed="444 nM"
residue_sequence="AAAAUGUAAGGAUAUAGCCGGAACCCAGGGUCAAUACCCGGCUAGAAGGUACAUGAGGAUCACCCAUGUAAGAA [Excls4-VI] (puzzle: Exclusion 4)" observed="16.5 nM"

Query for MS2 coat protein: what apparent KD of MS2 coat protein does the record show for UAUAAGGUAGGAUAUACGAAUAAAUAGGGUAGAAUAAUAACACAUGAGGAUCACCCAUGUAGAAGGACCAAUAG [Mat - Exclusion 2 - Mod of my Tesla design - D27] (puzzle: Exclusion 2) ?
17.2 nM

Query for MS2 coat protein: what apparent KD of MS2 coat protein does the record show for AAGAAACGAGGAUAUACAAUUAAGAGAGAGAAGGAAAUGAGACAUGAGGAUCACCCAUGUAGAAGGCGUAAGAG [JR_Exclu2_Sub083] (puzzle: Exclusion 2) ?
28.2 nM

Query for MS2 coat protein: what apparent KD of MS2 coat protein does the record show for UAAUGCAAGCAAAGAUUCUACAUGAGGAUCACCCAUGUGCUCGUCUUAUAAAGUACUAUCACGAAAGUGAUAGUACA [Mat - Sensor v3 - turn-off var 1 - Eli Mod - D96] (puzzle: Sensor v3, turn-off variant 1) ?
27.1 nM

Query for MS2 coat protein: what apparent KD of MS2 coat protein does the record show for UUUAAUUUUUUUUUUUUACAAGCUUUUUGCUCGUCUUAUACAUGAGGAUCACCCAUGUGAAUGAGGGAUAAAUUAUC [JMF 39] (puzzle: Sensor v3, turn-off variant 2) ?
11.9 nM

Query for MS2 coat protein: what apparent KD of MS2 coat protein does the record show for UGGUAACAUGAGGAUCACCCAUGUCAGGAUAUCAUGAAGAGGAGAGGAGAGGAGAGGAUGAGAAGGGACUAUAU [Excluse me! 13 - Jieux - Exclusion 1] (puzzle: Exclusion 1) ?
38.4 nM
